The entries below come with measured Normalized Binding Signal, 1500 nM values attached.
assayedTarget: T1, recombinant human Tie2 extracellular domain (human, UniProt Q02763 23-748)
T1 construct: whole entry named; also called Recombinant human Tie2 ECD; hu Tie2
T1 sequence (Q02763 23-748 limits assumed): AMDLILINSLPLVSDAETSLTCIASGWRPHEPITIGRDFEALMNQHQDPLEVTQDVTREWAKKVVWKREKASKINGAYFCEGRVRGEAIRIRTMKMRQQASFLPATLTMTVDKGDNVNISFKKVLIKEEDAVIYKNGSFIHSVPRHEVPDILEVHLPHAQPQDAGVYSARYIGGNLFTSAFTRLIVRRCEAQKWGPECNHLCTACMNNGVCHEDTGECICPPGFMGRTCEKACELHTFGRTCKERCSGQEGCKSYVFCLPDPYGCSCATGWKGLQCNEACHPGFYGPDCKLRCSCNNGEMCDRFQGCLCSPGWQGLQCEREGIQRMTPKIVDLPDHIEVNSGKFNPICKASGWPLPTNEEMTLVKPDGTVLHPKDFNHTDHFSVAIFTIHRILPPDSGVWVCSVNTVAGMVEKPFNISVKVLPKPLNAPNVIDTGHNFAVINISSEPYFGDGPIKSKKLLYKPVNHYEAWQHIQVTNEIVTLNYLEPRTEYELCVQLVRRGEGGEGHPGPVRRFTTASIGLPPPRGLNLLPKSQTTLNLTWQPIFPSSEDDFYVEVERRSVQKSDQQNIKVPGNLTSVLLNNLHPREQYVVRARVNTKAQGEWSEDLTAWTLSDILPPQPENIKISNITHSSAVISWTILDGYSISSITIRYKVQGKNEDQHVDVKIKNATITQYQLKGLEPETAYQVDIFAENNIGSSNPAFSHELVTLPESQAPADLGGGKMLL
assayRemarks: SPR, IgG captured, 37C
Response field accepts a number only; no unit should be typed.

binder	valueType	assayValue
Tie2.1.M100cK (antibody, IgG1, name in Kabat numbering, V domains shown, hIgG1) VH: EVQLVESGGGLVQPGGSLRLSCAASGFTFSNTDISWVRQAPGKGLEWVGRISPSDGNTYYADSVKGRFTISADTSKNTAYLQMNSLRAEDTAVYYCARRTRWASWAKDYWGQGTLVTVSS VL: DIQMTQSPSSLSASVGDRVTITCRASQDVSTAVAWYQQKPGKAPKLLIYSASFLYSGVPSRFSGSGSGTDFTLTISSLQPEDFATYYCQQSYTTPPTFGQGTKVEIKR	Normalized Binding Signal, 1500 nM	0.41
Tie2.1.M100cG (antibody, IgG1, name in Kabat numbering, V domains shown, hIgG1) VH: EVQLVESGGGLVQPGGSLRLSCAASGFTFSNTDISWVRQAPGKGLEWVGRISPSDGNTYYADSVKGRFTISADTSKNTAYLQMNSLRAEDTAVYYCARRTRWASWAGDYWGQGTLVTVSS VL: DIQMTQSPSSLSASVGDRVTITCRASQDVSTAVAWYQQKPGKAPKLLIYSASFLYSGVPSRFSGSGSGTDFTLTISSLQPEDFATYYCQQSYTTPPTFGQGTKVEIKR	Normalized Binding Signal, 1500 nM	0.21
Tie2.1.M100cC (antibody, IgG1, name in Kabat numbering, V domains shown, hIgG1) VH: EVQLVESGGGLVQPGGSLRLSCAASGFTFSNTDISWVRQAPGKGLEWVGRISPSDGNTYYADSVKGRFTISADTSKNTAYLQMNSLRAEDTAVYYCARRTRWASWACDYWGQGTLVTVSS VL: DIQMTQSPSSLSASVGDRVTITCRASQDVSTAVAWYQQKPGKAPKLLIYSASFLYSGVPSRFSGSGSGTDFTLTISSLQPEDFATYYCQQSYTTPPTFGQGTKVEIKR	Normalized Binding Signal, 1500 nM	0.37

Prompt: Need Normalized Binding Signal, 1500 nM of Tie2.1.M100cR (antibody, IgG1, name in Kabat numbering, V domains shown, hIgG1) VH: EVQLVESGGGLVQPGGSLRLSCAASGFTFSNTDISWVRQAPGKGLEWVGRISPSDGNTYYADSVKGRFTISADTSKNTAYLQMNSLRAEDTAVYYCARRTRWASWARDYWGQGTLVTVSS VL: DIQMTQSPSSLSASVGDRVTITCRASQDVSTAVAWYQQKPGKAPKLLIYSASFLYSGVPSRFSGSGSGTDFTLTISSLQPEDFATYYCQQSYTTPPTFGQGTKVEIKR , thanks.
Completion: 0.22

Prompt: How about Tie2.1.M100cF (antibody, IgG1, V domains shown, hIgG1 in the SPR and binning assays) VH: EVQLVESGGGLVQPGGSLRLSCAASGFTFSNTDISWVRQAPGKGLEWVGRISPSDGNTYYADSVKGRFTISADTSKNTAYLQMNSLRAEDTAVYYCARRTRWASWAFDYWGQGTLVTVSS VL: DIQMTQSPSSLSASVGDRVTITCRASQDVSTAVAWYQQKPGKAPKLLIYSASFLYSGVPSRFSGSGSGTDFTLTISSLQPEDFATYYCQQSYTTPPTFGQGTKVEIK ?
Completion: 0.48
